Below is a list of entries, each paired with its recorded melting point value.
ENDPOINT LABEL: melting point

| COMPOUND | RESULT |
| --- | --- |
| CCCc1[nH]c(C(=O)OCC)c(C)c1CCC(=O)OCC | 61.5 to 63.5 °C |
| CCc1cn2ccccc2c1S(=O)(=O)c1cc(C)c(OS(=O)(=O)c2ccc(C)cc2)c(C)c1 | 161 °C |
| COc1cc(Nc2nc3c(s2)CCCC3c2ccccc2)ccc1C(N)=O (stereo not given) | 243 to 246 °C |
| O=C(O)CC(c1ccc(F)cc1)c1ccc(F)cc1 | 106 to 107 °C |
| CC1Cc2ccccc2N1c1nc(=O)c2cccnc2s1 (stereo not given) | 179 to 180 °C |
